Each entry below carries its reported binding ratio.
system_name: dopamine transporter (Rattus norvegicus, UniProt P23977)
Construct: was used to label dopamine transporters in rat striatal membranes; from tissue; host or cells: rat striatal membranes
Sequence (P23977 whole entry): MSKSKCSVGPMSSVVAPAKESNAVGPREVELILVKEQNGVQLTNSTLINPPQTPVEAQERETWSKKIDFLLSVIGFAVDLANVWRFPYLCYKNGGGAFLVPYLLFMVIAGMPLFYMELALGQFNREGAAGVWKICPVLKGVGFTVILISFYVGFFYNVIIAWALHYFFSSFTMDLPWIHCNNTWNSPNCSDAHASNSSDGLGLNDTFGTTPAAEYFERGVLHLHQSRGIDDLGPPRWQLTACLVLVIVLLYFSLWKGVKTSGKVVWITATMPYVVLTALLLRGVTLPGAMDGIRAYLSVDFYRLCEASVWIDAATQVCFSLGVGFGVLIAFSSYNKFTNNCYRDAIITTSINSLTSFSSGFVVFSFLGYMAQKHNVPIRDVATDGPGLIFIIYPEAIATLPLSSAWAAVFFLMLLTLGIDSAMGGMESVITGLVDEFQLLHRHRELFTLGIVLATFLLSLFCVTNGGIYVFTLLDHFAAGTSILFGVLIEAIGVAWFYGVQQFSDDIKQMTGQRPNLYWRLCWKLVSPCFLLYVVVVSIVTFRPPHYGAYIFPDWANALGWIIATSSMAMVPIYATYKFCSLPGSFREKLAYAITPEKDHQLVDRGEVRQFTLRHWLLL
test_protocol: Displacement of [^125 I]RTI-55 binding to dopamine transporters in rat striatal membranes
measurement_setup: 5-HT K1 / DA K1; higher numbers demonstrate relatively greater dopamine transporter potency
# print the numeric value only

Illustrative cases are given below, each with its answer.
[[record]]
compound = "CCC(=O)[C@H]1[C@@H](c2ccccc2C)C[C@@H]2CC[C@H]1N2C (relative stereo) [WF-22]"
experimental_endpoint = "binding ratio"
reported_result = 1.30

[[record]]
compound = "CCC(=O)C1C(c2ccc3ccccc3c2)CC2CCC1N2C (single isomer, unassigned) [WF-23(1)]"
experimental_endpoint = "binding ratio"
reported_result = 4.2


Ask: Given the entry CCC(=O)[C@@H]1[C@@H](c2ccc3cc(OC)ccc3c2)C[C@@H]2CC[C@H]1N2C (relative stereo) [WF-34] , report its measured binding ratio.
Reply: 3.76

Ask: Given the entry CCC(=O)[C@H]1[C@@H](c2ccc(C(C)C)cc2)C[C@@H]2CC[C@H]1N2C (relative stereo) [WF-31] , report its measured binding ratio.
Reply: 0.089

Ask: Given the entry CCC(=O)[C@H]1[C@@H](c2ccc3ccccc3c2)C[C@@H]2CC[C@H]1N2C (relative stereo) [WF-23] , report its measured binding ratio.
Reply: 3.1

Ask: Given the entry CCC(=O)[C@H]1[C@@H](c2ccc(C)c3ccccc23)C[C@@H]2CC[C@H]1N2C (relative stereo) [WF-27] , report its measured binding ratio.
Reply: 0.358

Ask: Given the entry CCC(=O)[C@@H]1[C@@H](c2ccc3ccccc3c2)C[C@@H]2CC[C@H]1N2C (relative stereo) [WF-24] , report its measured binding ratio.
Reply: 6.53
